These entries and their values trace back to patent US8877463B2.

- System: Bgl3054 ginsenoside glycosidase
- assay overview: Specificity and selectivity of the enzyme for hydrolysis of ginsenosides (TLC, HPLC, NMR)
- Assay type: biochemical, Rhodanobacter ginsenosidimutans KCTC22231T
- conditions: 0.2U enzyme, 50 mM sodium phosphate buffer pH 7.0, 0.1% (w/v) substrate, 37° C.
property: bioconversion of the ginsenoside substrate by the enzyme

[[record]]
molecule = "CC(C)=CCC[C@](C)(O[C@@H]1O[C@H](CO[C@@H]2OC[C@H](O)[C@H](O)[C@H]2O)[C@@H](O)[C@H](O)[C@H]1O)[C@H]1CC[C@]2(C)[C@@H]1[C@H](O)C[C@@H]1[C@@]3(C)CC[C@H](O[C@@H]4O[C@H](CO)[C@@H](O)[C@H](O)[C@H]4O[C@@H]4O[C@H](CO)[C@@H](O)[C@H](O)[C@H]4O)C(C)(C)[C@@H]3CC[C@]12C [Rb2, ginsenoside Rb2]"
experimental_target = "Bgl3054 ginsenoside glycosidase"
recorded_measurement = "converted into Rd"

[[record]]
molecule = "CC(C)=CCC[C@](C)(O[C@@H]1O[C@H](CO[C@@H]2O[C@H](CO)[C@@H](O)[C@H](O)[C@H]2O)[C@@H](O)[C@H](O)[C@H]1O)[C@H]1CC[C@]2(C)[C@@H]1[C@H](O)C[C@@H]1[C@@]3(C)CC[C@H](O[C@@H]4O[C@H](CO)[C@@H](O)[C@H](O)[C@H]4O[C@@H]4O[C@H](CO)[C@@H](O)[C@H](O)[C@H]4O)C(C)(C)[C@@H]3CC[C@]12C [Ginsenoside Rb1, ginsenoside Rb1]"
experimental_target = "Bgl3054 ginsenoside glycosidase"
recorded_measurement = "converted into Rd"

